- System: 4-diphosphocytidyl-2-C-methyl-D-erythritol kinase IspE (bacterial, species not stated)
- TEST_METHOD_NOTES: Confirmatory Assay for Inhibitors of Human Galactokinase (GALK): CDP-Me assay counterscreen for probe SAR
- EXPERIMENTAL_PARAMETERS: Kinase-Glo ATP luminescence, 1 h
Each record here notes measured max response.

| COMPOUND | UNIT_SPEC | max response |
| --- | --- | --- |
| O=C1CCCC2=C1C1(CCC1)N=C(Nc1nc3ccccc3o1)N2 | % | 4.72 |
| CC1(C)CC(=O)C2=C(C1)NC(Nc1nc3ccccc3o1)=NC2c1cccnc1 (stereo not given) | % | 1.01 |
| O=C1CCCC2=C1C1(CCCC1)N=C(Nc1nc3cc(Br)ccc3o1)N2 | % | 5.8 |
| COc1ccccc1C1N=C(Nc2nc3ccccc3o2)NC2=C1C(=O)CC(C)(C)C2 (stereo not given) | % | 1.66 |
| Cc1ccc2nc(NC3=NC4(CCCC4)C4=C(CCCC4=O)N3)oc2c1 | % | 7.12 |

* * *

- Test system: 4-diphosphocytidyl-2-C-methyl-D-erythritol kinase IspE (bacterial, species not stated)
- TEST_METHOD_NOTES: Confirmatory Assay for Inhibitors of Human Galactokinase (GALK): CDP-Me assay counterscreen for probe SAR
- EXPERIMENTAL_PARAMETERS: Kinase-Glo ATP luminescence, 1 h

| COMPOUND | ASSAY_TARGET | UNIT_SPEC | max response |
| --- | --- | --- | --- |
| O=C1CCCC2=C1C1(CCCC1)N=C(Nc1nc3cc4ccccc4cc3o1)N2 | 4-diphosphocytidyl-2-C-methyl-D-erythritol kinase IspE (bacterial, species not stated) | % | 5.94 |
| O=C1CCC2=C1C1(CCCC1)N=C(Nc1nc3ccccc3o1)N2 | 4-diphosphocytidyl-2-C-methyl-D-erythritol kinase IspE (bacterial, species not stated) | % | 2.86 |
| COc1ccc(C2N=C(Nc3nc4ccccc4o3)NC3=C2C(=O)CC(C)(C)C3)cc1 (configuration not stated) | 4-diphosphocytidyl-2-C-methyl-D-erythritol kinase IspE (bacterial, species not stated) | % | 1.84 |
| O=C1CCCC2=C1[C@@]1(CCC(c3ccccc3)C1)N=C(Nc1nc3ccccc3o1)N2 (some centres not stated) | 4-diphosphocytidyl-2-C-methyl-D-erythritol kinase IspE (bacterial, species not stated) | % | 3.98 |
| CC1(C)CC(=O)C2=C(C1)NC(Nc1nc3ccccc3o1)=NC2c1ccccc1 (configuration not stated) | 4-diphosphocytidyl-2-C-methyl-D-erythritol kinase IspE (bacterial, species not stated) | % | 1.82 |
| O=C1CCCC2=C1C1(CCCC1)N=C(Nc1nc3cc(-c4ccccc4)ccc3o1)N2 | 4-diphosphocytidyl-2-C-methyl-D-erythritol kinase IspE (bacterial, species not stated) | % | -2.69 |
| CC1(C)CC(=O)C2=C(C1)NC(Nc1nc3ccccc3o1)=NC2c1cccc(Cl)c1 (configuration not stated) | 4-diphosphocytidyl-2-C-methyl-D-erythritol kinase IspE (bacterial, species not stated) | % | 2.44 |
